- testedTarget: Mfd (Escherichia coli, UniProt P30958 1-1148)
- experimentSummary: SPR; 0.5 mM ATPgS; SPR: 30 mM Tris/HCl pH 7.6, 40 mM KCl, 5 mM MgCl2, 0.005% P20, 0.25 mM EDTA, 0.5 mM DTT, 0.5 mM ATPgS, 20 C; smFRET: 20 mM Tris/HCl pH 8.0, 40 mM KCl, 5 mM MgCl2, 1 mM 2-mercaptoethanol
- runParameters: protein: recombinant; tags: none stated; label: 5' biotin on AS18; 5' overhang 15 nt (template)
attributeMeasured: pKd
Reminder that pKd means the negative base-10 logarithm of the concentration expressed in mol/L.

Documented pKd of dT15_S18:bio_AS18 (dsDNA) DNA 1: TTTTTTTTTTTTTTTGCCTCGCTGCCGTCGCCA DNA 2: TGGCGACGGCAGCGAGGC : 6.66
